Answer each item with its documented growth inhibition by drug alone.
Test system: RIVA
Assay Name: growth inhibition by drug alone (1 - RLU/untreated control) (fraction); higher = stronger inhibition
Test Context: 100 nM; time (day): 3; 177Lu-lilotomab satetraxetan 0 ug/ml
Give bare numbers.

The examples below pair each entry with its known result.
CC1=C2C[C@H]3[C@@H](CC=C4C[C@@H](O)CC[C@@]43C)[C@@H]2CC[C@]12O[C@@H]1C[C@H](C)CN[C@H]1[C@H]2C	0.0149
CC(C)[C@]12O[C@H]1[C@@H]1O[C@]13[C@]1(O[C@H]1C[C@H]1C4=C(CC[C@@]13C)C(=O)OC4)[C@@H]2O [Triptolide]	0.907
C=C1C[C@@H]2[C@H](CC[C@]3(C)C(=O)CC[C@@H]23)[C@@]2(C)C=CC(=O)C=C12	-0.247
O=C(O)c1nn(Cc2ccc(Cl)cc2Cl)c2ccccc12	-0.419
CC(=O)Nc1ccc(OC[C@](C)(O)C(=O)Nc2ccc([N+](=O)[O-])c(C(F)(F)F)c2)cc1	-0.229

Give growth inhibition by drug alone for each listed item.
1. C[C@]12CCC(=O)C(O)=C1CC[C@@H]1[C@@H]2CC[C@]2(C)C(=O)CC[C@@H]12
2. CC[C@@H](C(=O)[C@@H](C)[C@@H](O)[C@H](C)[C@@H]1O[C@@H]([C@@H](CC)C(=O)O)CC[C@@H]1C)[C@H]1O[C@]2(C=C[C@@H](O)[C@]3(CC[C@@](C)([C@H]4CC[C@](O)(CC)[C@H](C)O4)O3)O2)[C@H](C)C[C@@H]1C

Response line:
-0.322
0.144
